- Tested on: HCC-2998 colon
- Assay Explanation: NCI-60 one-dose screen, 48 h
- Run Conditions: 10 µM
The panel holds about 83,000 compounds, 20% with a hit somewhere; the sample as a whole holds those more often. Activity calls are given as the source filed them. Rule for the calls: active = growth percent below 10; inactive = the rest.
Reply using exactly one outcome from active, inactive

## Task Write down the call the test reported for this molecule. Item: O=C1C=C(O)c2ccccc2C1=O.[Ag]
## Result inactive

## Task Write down the call the test reported for this molecule. Item: Cc1nc(N=C(N)N)nc2ccc3ccccc3c12
## Result inactive

## Task Write down the call the test reported for this molecule. Item: Oc1ccc(N=Nc2ccccn2)c(O)c1
## Result inactive

## Task Write down the call the test reported for this molecule. Item: O=[N+]([O-])C1=C(c2ccccc2)SC=C(c2ccccc2)S1
## Result inactive

## Task Write down the call the test reported for this molecule. Item: NNc1ccc2ccccc2c1
## Result inactive

## Task Write down the call the test reported for this molecule. Item: CN1CCN(CCCN2c3ccccc3Sc3ccc(C(F)(F)F)cc32)CC1
## Result active

## Task Write down the call the test reported for this molecule. Item: CC(=O)Nc1cc(C)ccc1C
## Result inactive

## Task Write down the call the test reported for this molecule. Item: O=C1C=CC(=CC=C2C=CN(CCCCCCCCCCCO)C=C2)C=C1
## Result inactive

## Task Write down the call the test reported for this molecule. Item: O=C(O)COc1ccc(OCC(=O)O)cc1
## Result active

## Task Write down the call the test reported for this molecule. Item: NC(=O)SCC(=O)NNc1ccccc1
## Result inactive

## Task Write down the call the test reported for this molecule. Item: COc1ccc(CC(=O)c2ccc(O)cc2O)cc1
## Result inactive

## Task Write down the call the test reported for this molecule. Item: CCN(CC)c1ccc(NC(C(=O)c2ccccc2)c2ccccc2)cc1 (centres undefined)
## Result inactive

## Task Write down the call the test reported for this molecule. Item: NC1=C(Cl)C(=O)c2ccccc2C1=O
## Result inactive

## Task Write down the call the test reported for this molecule. Item: COc1cccc2c1C(=O)c1c(O)c3c(c(O)c1C2=O)C[C@@](O)(C(=O)CO)C[C@@H]3OC1CC(N)C(O)C(C)O1 (some centres undefined)
## Result active

## Task Write down the call the test reported for this molecule. Item: O=C1NC(=O)c2cc([N+](=O)[O-])ccc21
## Result inactive

## Task Write down the call the test reported for this molecule. Item: CC[N+](CC)=c1ccc2nc3c(cc(N)c4ccccc43)oc-2c1
## Result active

## Task Write down the call the test reported for this molecule. Item: O=C(/C=C/c1ccccn1)c1ccccc1
## Result inactive

## Task Write down the call the test reported for this molecule. Item: CC(C)(C)CC(C)(C)c1ccc(OCCO)cc1
## Result inactive

## Task Write down the call the test reported for this molecule. Item: CCCCCC(C)c1ccc(O)c(C)c1 (centres undefined)
## Result inactive

* * *

- Tested on: NCI-H23 lung
- Assay Explanation: NCI-60 one-dose screen, 48 h (100 = growth as untreated, 0 = no growth, -100 = all killed)
- Run Conditions: 10 µM
Compounds without any hit were thinned out: in the full panel of roughly 83,000, 20% have a hit.
Readout Label: growth (%)
# value in %; strip the unit string

## Task For the molecule CC[N+](CC)=c1ccc2nc3c(cc(N)c4ccccc43)oc-2c1 , what growth is on record?
## Result -41.8

## Task For the molecule COc1cccc2c1C(=O)c1c(O)c3c(c(O)c1C2=O)C[C@@](O)(C(=O)CO)C[C@@H]3OC1CC(N)C(O)C(C)O1 (some centres undefined) , what growth is on record?
## Result 33.3

## Task For the molecule NC1=C(Cl)C(=O)c2ccccc2C1=O , what growth is on record?
## Result 40.7

## Task For the molecule NNc1c2ccccc2nc2ccccc12 , what growth is on record?
## Result 47.4

## Task For the molecule COc1c(O)cc2oc3cc(O)c(CC=C(C)C)c(O)c3c(=O)c2c1CC=C(C)C , what growth is on record?
## Result 54.6

## Task For the molecule CSC1SCC2C(=O)N(C)C(C(C)C)C(=O)OCC(NC(=O)c3cnc4ccccc4n3)C(=O)NC(C)C(=O)N(C)C1C(=O)N(C)C(C(C)C)C(=O)OCC(NC(=O)c1cnc3ccccc3n1)C(=O)NC(C)C(=O)N2C (centres undefined) , what growth is on record?
## Result -28.2

## Task For the molecule COC(=O)C1C(O)C(C)C(O)C(C)C=C(C)C2=C3C(=C(C)C(=O)c4c(O)c(c(C)c(OC(C)=O)c43)NC(=O)C(C)=C/C=C\C(C)C(O)C(C)C1O)OCO2 (centres undefined) , what growth is on record?
## Result 107

## Task For the molecule CCCCCCCCCCSC(=N)N , what growth is on record?
## Result 87.4

## Task For the molecule CC1=CC(C)=Nc2ccc(Cl)cc2N1 , what growth is on record?
## Result 94.1

* * *

- Tested on: HCT-116 colon
- Assay Explanation: NCI-60 one-dose screen, 48 h (100 = growth as untreated, 0 = no growth, -100 = all killed)
- Run Conditions: 10 µM
This is part of a sample that, as a whole, favours compounds with a hit. Of some 83,000 tested, about 20% had one in any assay.
Readout Label: growth (%)
# value in %; strip the unit string

## Task For the compound COC(=O)C1C(O)C(C)C(O)C(C)C=C(C)C2=C3C(=C(C)C(=O)c4c(O)c(c(C)c(OC(C)=O)c43)NC(=O)C(C)=C/C=C\C(C)C(O)C(C)C1O)OCO2 (stereo unspecified) , what growth is on record?
## Result 96

## Task For the compound OCC(O)C(O)C(O)C(/C=N/Nc1ccccc1)=N/Nc1ccccc1 (stereo unspecified) , what growth is on record?
## Result 84.4

## Task For the compound CCC(C)(C)c1cc(O)c(C(C)(C)CC)cc1O , what growth is on record?
## Result 16.6

## Task For the compound NNc1c2ccccc2nc2ccccc12 , what growth is on record?
## Result 40.1

## Task For the compound CCCCCCCCCCCC[N+](C)(C)Cc1ccccc1 , what growth is on record?
## Result 21.5

## Task For the compound Clc1ccc(/C=C/c2ccccn2)c(Cl)c1 , what growth is on record?
## Result 77.7

## Task For the compound CSC1SCC2C(=O)N(C)C(C(C)C)C(=O)OCC(NC(=O)c3cnc4ccccc4n3)C(=O)NC(C)C(=O)N(C)C1C(=O)N(C)C(C(C)C)C(=O)OCC(NC(=O)c1cnc3ccccc3n1)C(=O)NC(C)C(=O)N2C (stereo unspecified) , what growth is on record?
## Result -29.5

## Task For the compound CC(C)(C)CC(C)(C)c1ccc(OCCO)cc1 , what growth is on record?
## Result 102

## Task For the compound O=C(/C=C/c1ccccn1)c1ccccc1 , what growth is on record?
## Result -90.8

## Task For the compound NC(=O)SCC(=O)NNc1ccccc1 , what growth is on record?
## Result 94.6

## Task For the compound CC1=CC(C)=Nc2ccc(Cl)cc2N1 , what growth is on record?
## Result 100

## Task For the compound CCN1/C(=C/C=C/C=C/c2sc3ccccc3[n+]2CC)Sc2ccccc21 , what growth is on record?
## Result -25.9

## Task For the compound CCCCCCCCCCCCCCCCCCOCC(COP(=O)([O-])OCC[N+](C)(C)C)OC (stereo unspecified) , what growth is on record?
## Result 65.1

## Task For the compound COC1OCC(O)C(O)C1O (stereo unspecified) , what growth is on record?
## Result 102

## Task For the compound CCCCCCCCCCSC(=N)N , what growth is on record?
## Result 23.4

## Task For the compound CCO/C=C1\SC(=S)N(c2cccc(O)c2)C1=O , what growth is on record?
## Result 96.9

* * *

For each of the compounds below, state its growth.
- System: SK-MEL-28 melanoma
- Assay Explanation: NCI-60 one-dose screen, 48 h (100 = growth as untreated, 0 = no growth, -100 = all killed)
- Run Conditions: 10 µM
This is part of a sample that, as a whole, favours compounds with a hit. Of some 83,000 tested, about 20% had one in any assay.
# value in %; strip the unit string

## Task For the compound OC(CN1CCCC2CCCCC21)c1cc2ccccc2c2ccccc12 (stereo not given) , what growth is on record?
## Result 49.4

## Task For the compound CSC1SCC2C(=O)N(C)C(C(C)C)C(=O)OCC(NC(=O)c3cnc4ccccc4n3)C(=O)NC(C)C(=O)N(C)C1C(=O)N(C)C(C(C)C)C(=O)OCC(NC(=O)c1cnc3ccccc3n1)C(=O)NC(C)C(=O)N2C (stereo not given) , what growth is on record?
## Result -13.9

## Task For the compound NC1=C(Cl)C(=O)c2ccccc2C1=O , what growth is on record?
## Result 105

## Task For the compound O=C(/C=C/c1ccccn1)c1ccccc1 , what growth is on record?
## Result 100

## Task For the compound O=C1C=CC(=CC=C2C=CN(CCCCCCCCCCCO)C=C2)C=C1 , what growth is on record?
## Result 37.6
